Origin of values: patent US20120121691A1

Test system: COG-LL-317
Format: cell-based, human
Experimental: Statistical analyses. […] Propagated standard deviations were calculated using standard methods. Correlation analyses were performed using Sigmaplot 11 software.
Recorded metric: Spearman Coef. (ρ), sphingolipid level vs cytotoxicity

Compound | Assay target | Reported measurement
CCCCCCCCCCCCCCCCCCCCCCCC(=O)N[C@@H](CO)[C@H](O)CCCCCCCCCCCCCCC | COG-LL-317 | 0.91
CCCCCCCCCCCCCC=CC(O)C(CO)NC(=O)CCCCCCCCCCCCCCC (centres unmarked) | COG-LL-317 | −0.50
CCCCCCCCCCCCC/C=C/[C@@H](O)[C@H](CO)NC(=O)CCCCCCCCCCCCC | COG-LL-317 | −0.43
CCCCCCCCCCCCCCCCCC(=O)N[C@@H](CO)[C@H](O)CCCCCCCCCCCCCCC | COG-LL-317 | −0.38
CCCCCCCCCCCCCCCCCCCC(=O)N[C@@H](CO)[C@H](O)CCCCCCCCCCCCCCC | COG-LL-317 | 0.14
CCCCCCCC/C=C\CCCCCCCCCCCCCC(=O)N[C@@H](CO)[C@H](O)/C=C/CCCCCCCCCCCCC | COG-LL-317 | −0.74
CCCCCCCCCCCCCC=CC(O)C(CO)NC(=O)CCCCCCCCCCCCCCCCCCCCC (centres unmarked) | COG-LL-317 | 0.33
CCCCCCCCCCCCCCC[C@@H](O)[C@H](CO)NC(=O)CCCCCCCCCCCCC | COG-LL-317 | 0.10
CCCCCCCCCCCCCC=CC(O)C(CO)NC(=O)CCCCCCCCCCCCCCCCC (centres unmarked) | COG-LL-317 | −0.60
CCCCCCCCC=CCCCCCCCCCCCC(=O)NC(CO)C(O)CCCCCCCCCCCCCCC (centres unmarked) | COG-LL-317 | −0.26
CCCCCCCCCCCCCCCCCCCCCC(=O)N[C@@H](CO)[C@H](O)CCCCCCCCCCCCCCC | COG-LL-317 | 0.79
CCCCCCCCCCCCCC=CC(O)C(CO)NC(=O)CCCCCCCCCCCCCCCCCCCCCCC (centres unmarked) | COG-LL-317 | 0.25
CCCCCCCC/C=C\CCCCCCCCCCCCCC(=O)N[C@@H](CO)[C@H](O)CCCCCCCCCCCCCCC | COG-LL-317 | −0.21
CCCCCCCCCCCCCC=CC(O)C(CO)NC(=O)CCCCCCCCCCCCCCCCCCC (centres unmarked) | COG-LL-317 | −0.81
CCCCCCCCC=CCCCCCCCCCCCC(=O)NC(CO)C(O)C=CCCCCCCCCCCCCC (centres unmarked) | COG-LL-317 | −0.60
CCCCCCCCC=CCCCCCCCC(=O)NC(CO)C(O)C=CCCCCCCCCCCCCC (centres unmarked) | COG-LL-317 | −0.59
CCCCCCCCCCCCCCCC(=O)N[C@@H](CO)[C@H](O)CCCCCCCCCCCCCCC | COG-LL-317 | 0

* * *

System: MOLT-4
Format: cell-based, human
Recorded metric: Pearson Coef. (r), sphingolipid level vs cytotoxicity

Compound | Reported measurement
CCCCCCCCCCCCCC=CC(O)C(CO)NC(=O)CCCCCCCCCCCCCCC (centres unmarked) [C16:0-Cer] | −0.62
CCCCCCCCCCCCCC=CC(O)C(CO)NC(=O)CCCCCCCCCCCCCCCCCCCCCCC (centres unmarked) [C24:0-Cer] | 0.33
CCCCCCCCCCCCC/C=C/[C@@H](O)[C@H](CO)NC(=O)CCCCCCCCCCCCC [C14:0-Cer] | −0.53
CCCCCCCCC=CCCCCCCCC(=O)NC(CO)C(O)C=CCCCCCCCCCCCCC (centres unmarked) [C18:1-Cer] | −0.52
CCCCCCCCCCCCCCCCCCCC(=O)N[C@@H](CO)[C@H](O)CCCCCCCCCCCCCCC [C20:0-DHCer] | 0.12
CCCCCCCC/C=C\CCCCCCCCCCCCCC(=O)N[C@@H](CO)[C@H](O)/C=C/CCCCCCCCCCCCC [C24:1-Cer] | −0.43
CCCCCCCCCCCCCC=CC(O)C(CO)NC(=O)CCCCCCCCCCCCCCCCCCCCC (centres unmarked) [C22:0-Cer] | 0.46
CCCCCCCCC=CCCCCCCCCCCCC(=O)NC(CO)C(O)C=CCCCCCCCCCCCCC (centres unmarked) [C22:1-Cer] | −0.32
CCCCCCCC/C=C\CCCCCCCCCCCCCC(=O)N[C@@H](CO)[C@H](O)CCCCCCCCCCCCCCC [C24:1-DHCer] | −0.04
CCCCCCCCCCCCCC=CC(O)C(CO)NC(=O)CCCCCCCCCCCCCCCCCCC (centres unmarked) [C20:0-Cer] | −0.46
CCCCCCCCCCCCCCCCCCCCCC(=O)N[C@@H](CO)[C@H](O)CCCCCCCCCCCCCCC [C22:0-DHCer] | 0.79
CCCCCCCCCCCCCCCCCC(=O)N[C@@H](CO)[C@H](O)CCCCCCCCCCCCCCC [C18:0-DHCer] | 0.12
CCCCCCCCCCCCCCC[C@@H](O)[C@H](CO)NC(=O)CCCCCCCCCCCCC [C14:0-DHCer] | 0.13
CCCCCCCCCCCCCCCCCCCCCCCC(=O)N[C@@H](CO)[C@H](O)CCCCCCCCCCCCCCC [C24:0-DHCer] | 0.79
CCCCCCCCCCCCCC=CC(O)C(CO)NC(=O)CCCCCCCCCCCCCCCCC (centres unmarked) [C18:0-Cer] | −0.33
CCCCCCCCCCCCCCCC(=O)N[C@@H](CO)[C@H](O)CCCCCCCCCCCCCCC [C16:0-DHCer] | 0.26
